Source: patent US11834454B2

- Tested on: BaF3-CD74-NTRK1-F589L (Homo sapiens, UniProt P04629, F589L)
- Construct: fused on or other part: P04233 (HLA class II histocompatibility antigen gamma chain)
- Sequence (P04629 510-796 F589L limits assumed): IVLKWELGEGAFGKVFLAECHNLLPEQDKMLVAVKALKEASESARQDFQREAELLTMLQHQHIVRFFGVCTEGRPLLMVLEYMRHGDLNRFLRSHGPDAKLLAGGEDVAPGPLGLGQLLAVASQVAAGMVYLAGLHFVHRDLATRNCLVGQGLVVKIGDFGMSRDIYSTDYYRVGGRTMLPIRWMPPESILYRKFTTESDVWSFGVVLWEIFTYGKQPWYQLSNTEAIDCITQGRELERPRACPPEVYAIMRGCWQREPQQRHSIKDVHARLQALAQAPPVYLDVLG
- Experiment description: Drug-resistant cell proliferation inhibition (CCK-8)
- Experimental conditions: 72 hours, read-out: drug-resistant cell viability IC50
Field: IC50. Provide a value for each of the compounds that follow.

Cc1c(C#Cc2cnc3ccc(N4CCOCC4)nn23)cccc1C(=O)Nc1cc(CN2CCN(C)CC2)cc(C(F)(F)F)c1 100 to 1000 nM
Cc1c(C#Cc2cnc3ccc(N4CCC(O)CC4)nn23)cccc1C(=O)Nc1cc(Cl)cc(C(F)(F)F)c1 100 to 1000 nM

Give IC50 for all compounds that follow.
1. Cc1c(C#Cc2cnc3ccc(N4CCC(O)CC4)nn23)cccc1C(=O)Nc1cc(CN2CCN(C)CC2)cc(C(F)(F)F)c1
2. Cc1cn(-c2cc(NC(=O)c3cccc(C#Cc4cnc5ccc(N6CCC(O)CC6)nn45)c3C)cc(C(F)(F)F)c2)cn1

result:
100 to 1000 nM
10 to 100 nM

* * *

- Tested on: BaF3-CD74-NTRK1-V573M (Homo sapiens, UniProt P04629, V573M)
- Construct: constructed pCDNA3.1(+) plasmid vector carrying genes such as BaF3-CD74-NTRK1-G667C; fused on or other part: P04233 (HLA class II histocompatibility antigen gamma chain)
- Sequence (P04629 510-796 V573M limits assumed): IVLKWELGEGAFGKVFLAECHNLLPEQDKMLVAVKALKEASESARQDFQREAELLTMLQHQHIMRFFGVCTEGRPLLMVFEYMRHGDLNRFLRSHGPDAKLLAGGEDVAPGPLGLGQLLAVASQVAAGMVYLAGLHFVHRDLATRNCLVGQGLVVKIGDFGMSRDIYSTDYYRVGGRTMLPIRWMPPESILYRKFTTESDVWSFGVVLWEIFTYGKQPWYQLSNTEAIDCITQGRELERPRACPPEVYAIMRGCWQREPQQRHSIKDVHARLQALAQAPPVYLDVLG
- Experiment description: Drug-resistant cell proliferation inhibition (CCK-8)
- Experimental conditions: 72 hours, read-out: drug-resistant cell viability IC50
Field: IC50. Provide a value for each of the compounds that follow.

Cc1cn(-c2cc(NC(=O)c3cccc(C#Cc4cnc5ccc(N6CCC(O)CC6)nn45)c3C)cc(C(F)(F)F)c2)cn1 < 0.01 µM
Cc1c(C#Cc2cnc3ccc(N4CCC(O)CC4)nn23)cccc1C(=O)Nc1cc(CN2CCN(C)CC2)cc(C(F)(F)F)c1 < 0.01 µM
Cc1c(C#Cc2cnc3ccc(N4CCOCC4)nn23)cccc1C(=O)Nc1cc(CN2CCN(C)CC2)cc(C(F)(F)F)c1 0.01 to 0.1 µM

Consider the record given below.
query: # IC50 lookup, item "Cc1c(C#Cc2cnc3ccc(N4CCC(O)CC4)nn23)cccc1C(=O)Nc1cc(Cl)cc(C(F)(F)F)c1"
result: 0.01 to 0.1 µM

* * *

- Tested on: TRKA (Homo sapiens)
- Construct: purchased American Life Technologies PV3144
- Sequence (P04629 33-796): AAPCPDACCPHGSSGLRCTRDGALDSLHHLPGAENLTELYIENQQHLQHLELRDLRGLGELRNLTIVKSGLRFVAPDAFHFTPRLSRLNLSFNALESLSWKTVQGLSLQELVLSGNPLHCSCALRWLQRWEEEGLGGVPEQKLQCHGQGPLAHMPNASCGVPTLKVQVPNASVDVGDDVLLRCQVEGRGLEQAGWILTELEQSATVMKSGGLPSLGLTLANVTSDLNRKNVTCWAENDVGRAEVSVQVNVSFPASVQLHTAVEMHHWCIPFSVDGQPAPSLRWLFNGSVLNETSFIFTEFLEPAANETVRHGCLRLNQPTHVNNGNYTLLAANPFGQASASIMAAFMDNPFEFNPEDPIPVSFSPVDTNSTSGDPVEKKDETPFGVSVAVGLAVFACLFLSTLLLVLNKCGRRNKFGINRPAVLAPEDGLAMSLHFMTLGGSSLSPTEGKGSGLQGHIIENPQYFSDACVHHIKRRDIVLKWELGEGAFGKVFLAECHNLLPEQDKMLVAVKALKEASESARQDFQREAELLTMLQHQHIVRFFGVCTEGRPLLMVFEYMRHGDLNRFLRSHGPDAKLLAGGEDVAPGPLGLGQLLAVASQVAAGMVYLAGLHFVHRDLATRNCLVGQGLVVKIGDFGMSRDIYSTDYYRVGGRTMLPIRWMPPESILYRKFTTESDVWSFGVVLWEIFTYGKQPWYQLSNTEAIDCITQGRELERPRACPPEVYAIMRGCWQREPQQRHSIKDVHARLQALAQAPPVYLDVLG
- Experiment description: Z'-LYTE kinase activity detection, TRKA
- Assay type: biochemical
Measured property: IC50

Some compounds with recorded IC50:
Cc1c(C#Cc2cnc3ccc(N4CCC(O)CC4)nn23)cccc1C(=O)Nc1cc(CN2CCN(C)CC2)cc(C(F)(F)F)c1 < 0.01 µM
Cc1c(C#Cc2cnc3ccc(N4CCC(N(C)C)CC4)nn23)cccc1C(=O)Nc1cccc(C(F)(F)F)c1 < 0.01 µM
CC(=O)N1CCN(c2ccc3ncc(C#Cc4cccc(C(=O)Nc5cc(Cl)cc(C(F)(F)F)c5)c4C)n3n2)CC1 < 0.01 µM
Cc1c(C#Cc2cnc3ccc(N4CC[C@H](O)C4)nn23)cccc1C(=O)Nc1cc(CN2CCN(C)CC2)cc(C(F)(F)F)c1 0.01 to 0.1 µM
Cc1cn(-c2cc(NC(=O)c3cccc(C#Cc4cnc5ccc(N6CCC(O)CC6)nn45)c3C)cc(C(F)(F)F)c2)cn1 < 0.01 µM

Give IC50 for all compounds that follow.
1. Cc1c(C#Cc2cnc3ccc(N4CCOCC4)nn23)cccc1C(=O)Nc1cc(Cl)cc(C(F)(F)F)c1
2. Cc1cn(-c2cc(NC(=O)c3cccc(C#Cc4cnc5ccc(N6CCOCC6)nn45)c3C)cc(C(F)(F)F)c2)cn1
3. Cc1c(C#Cc2cnc3ccc(N4CCN(C)CC4)nn23)cccc1C(=O)Nc1cc(Cl)cc(C(F)(F)F)c1
4. COc1cc(NC(=O)c2cccc(C#Cc3cnc4ccc(N5CCOCC5)nn34)c2C)cc(C(F)(F)F)c1
5. Cc1c(C#Cc2cnc3ccc(N(C)CCN(C)C)nn23)cccc1C(=O)Nc1cc(Cl)cc(C(F)(F)F)c1

result:
0.01 to 0.1 µM
< 0.01 µM
0.01 to 0.1 µM
0.01 to 0.1 µM
0.01 to 0.1 µM

Give IC50 for all compounds that follow.
1. Cc1c(C#Cc2cnc3ccc(N4CCOCC4)nn23)cccc1C(=O)Nc1cc([N+](=O)[O-])cc(C(F)(F)F)c1
2. Cc1c(C#Cc2cnc3ccc(N4CCC(N(C)C)CC4)nn23)cccc1C(=O)Nc1cc(CN2CCN(C)CC2)cc(C(F)(F)F)c1

result:
1. 0.01 to 0.1 µM
2. < 0.01 µM
